Tested on: HCV Replicon IB
test_summary: HCV replicon assay in Huh-7 cells, genotype 1b (Rluc luciferase readout)
Type: cell-based, hepatitis C virus
assay_conditions: Hepatitis C virus, 72 h; 10 uM; 1b-Rluc replicon, Huh-7 cells, 3 days; read-out: Inhibition @ 10 uM in 1b-Rluc
measured_attribute: inhibition at 10 µM (%)
Numbers only; they are read as %.

Problem: Looking for the measured inhibition at 10 µM of Cc1cc(C(=O)NCC2OCCCO2)nc2c(C(F)(F)F)cc(C3CC3)cc12 , can you help?
Result: 100

Problem: Looking for the measured inhibition at 10 µM of Cc1cc(C(=O)NC[C@@H]2CC(F)(F)CCN2)nc2c(C(F)(F)F)cc(C3CC3)cc12 , can you help?
Result: 100

Problem: Looking for the measured inhibition at 10 µM of C=Cc1cc(C(=O)NCc2cccs2)nc2c(C(F)(F)F)cc(-c3ccccc3)cc12 , can you help?
Result: 63.6

Problem: Looking for the measured inhibition at 10 µM of Cc1cc(C(=O)NCCCN2CCOCC2)nc2c(C(F)(F)F)cc(C3CC3)cc12 , can you help?
Result: 97.2

Problem: Looking for the measured inhibition at 10 µM of Cc1cc(-c2nnc(NCC3CCS(=O)(=O)C3)o2)nc2c(C(F)(F)F)cc(C3CC3)cc12 (centres unmarked) , can you help?
Result: 90.6

Problem: Looking for the measured inhibition at 10 µM of Cc1cc(-c2nnc(NCCCS(C)(=O)=O)o2)nc2c(C(F)(F)F)cc(C3CC3)cc12 , can you help?
Result: 87.4

Problem: Looking for the measured inhibition at 10 µM of Cc1cc(-c2nnc(NCCCN3CCOCC3)s2)nc2c(C(F)(F)F)cc(C3CC3)cc12 , can you help?
Result: 88

Problem: Looking for the measured inhibition at 10 µM of Cc1cc(-c2nnc(NCCCCO)o2)nc2c(C(C)(C)C)cc(C3CC3)cc12 , can you help?
Result: 99.9

====

System: HCV Replicon IB
test_summary: HCV replicon assay in Huh-7 cells, genotype 1b (Rluc luciferase readout)
Assay type: cell-based, hepatitis C virus
assay_conditions: Hepatitis C virus, Huh-7, 72 h, HCV1B replicon, Huh-7 cells, 3 days; read-out: EC50_HCV1B_
Would you mind telling me the reported EC50 of each entry?
Numbers only; they are read as nM.

Problem: Looking for the measured EC50 of CO[C@H]1CN[C@H](CNC(=O)c2nc(N)c3cc(C4CC4)cc(C(C)(C)C)c3n2)C1 , can you help?
Result: 83.3

Problem: Looking for the measured EC50 of Cc1cc(-c2nnc(NCCO)s2)nc2c(C(F)(F)F)cc(C3CC3)cc12 , can you help?
Result: 66

Problem: Looking for the measured EC50 of CO[C@@H]1CN[C@H](CNC(=O)c2cc(N)c3cc(C4CC4)cc(C(C)(C)C)c3n2)C1 , can you help?
Result: 15.9
